assay: MRP1 drug-resistance reversers in H69AR cells – cell-based, doxorubicin co-treatment, pilot screen (AID 601)
test.conditions: H69AR cells + 2 uM doxorubicin, CellTiter-Glo, 72 h; at 10 µM; hits give high values
Activity calls are given as the source filed them.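 Rule for the calls: active = viability loss from added drug above about 55%, and viability with drug at most 40%, in both replicates (limit read from the data, passing the limit was not always enough); inconclusive = both conditions met in only one replicate; inactive = neither replicate meets both conditions.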
property.label: differential viability (reversal)

Solved cases (5 shown):
{"columns": ["compound", "property.label", "value.measured"],
 "data": [
  ["CC1=NOC2(C)Nc3ncnn3C(c3ccccc3)C12 (configuration not stated)", "differential viability (reversal)", "-3.04% (inactive)"],
  ["CC1CCC(C(=O)NC(C(=O)N2CCC3(CC2)OCCO3)C(C)C)CC1 (configuration not stated)", "differential viability (reversal)", "8.49% (inactive)"],
  ["CCCCn1c(C)c(C(=O)OCC)c2c(CN3CCOCC3)c(O)ccc21", "differential viability (reversal)", "-6.07% (inactive)"],
  ["O=c1[nH]c(=O)n(Cc2ccco2)c(O)c1C=NCCCn1ccnc1", "differential viability (reversal)", "0.33% (inactive)"],
  ["C=CCn1c(O)c(C(C)=NCCCO)c(=O)[nH]c1=O", "differential viability (reversal)", "2.26% (inactive)"]
]}

// field: differential viability (reversal); key: CN1CCN(C(=O)OC2c3nccnc3C(=O)N2c2ccc(Cl)cn2)CC1 (configuration not stated) ; value = -3.97% (inactive)

// field: differential viability (reversal); key: O=C1OCCC1NC1=NCCC1 (configuration not stated) ; value = 13.1% (inactive)

// field: differential viability (reversal); key: C=CCn1c(O)c(C(C)=Nc2ccc(N(CC)CC)cc2)c(=O)[nH]c1=O ; value = -63.3% (inactive)
